test: soluble on expression in E. coli; label from the status in PepcDB or PDB records
measured.metric: soluble on expression in E. coli

HMDPDELPLDEHCERLPYDASKWEFPRDRLNLGKPLGRGAFGQVIEADAFGIDKTATCRTVAVKMLKEGATHSEHRALMSELKILIHIGHHLNVVNLLGACTKPGGPLMVIVEFCKFGNLSTYLRSKRNEFVPYKTPEDLYKDFLTLEHLICYSFQVAKGMEFLASRKCIHRDLAARNILLSEKNVVKICDFGLARDIYKDPDYVRKGDARLPLKWMAPETIFDRVYTIQSDVWSFGVLLWEIFSLGASPYPGVKIDEEFCRRLKEGTRMRAPDYTTPEMYQTMLDCWHGEPSQRPTFSELVEHLGNLLQANAQQD: soluble
TDQFGMIGLLTFIRAAETDPGMVHLALGSDLTTLGLNLNSPENLYPKFASPWASSPCRPQDIDFHVPSEYLTNIHIRDKLAAIKLGRYGEDLLFYLYYMNGGDVLQLLAAVELFNRDWRYHKEERVWITRAPGMEPTMKTNTYERGTYYFFDCLNWRKVAKEFHLEYDKLEERPHLPSTFNYNPAQQAF: soluble

---

test: soluble on expression in E. coli; label from the status in PepcDB or PDB records
measured.metric: soluble on expression in E. coli

MGSDKIHHHHHHMRGCFSVTGVEDVCERLGVPCVPLDDPVEVSGEVFQKIKISRKVLEADKVVNLPKLKTHSQMVMTLGVKNTFGCVVGLEKSSWHMRAKNYDDFANLLIDIHRIVSPVLTILDGVEGMEGNGPTNGKKKHFGLVAVSKNAFALDDAVCKALGIDHVVYTVQHARKRRVVPDYEIVGTFHASIQLPSTVSTLDRLSRTFSRFFVKYPKIDTRKCVKCRLCEERCPASAIDISSQRIDYQKCIRCYVCHEVCPQDAIKLVRRLV: not soluble
MGSDKIHHHHHHMSGHKCSYPWDLQDRYAQDKSVVNKMQQKYWETKQAFIKATGKKEDEHVVASDADLDAKLELFHSIQRTCLDLSKAIVLYQKRICFLSQEENELGKFLRSQGFQDKTRAGKMMQATGKALCFSSQQRLALRNPLCRFHQEVETFRHRAISDTWLTVNRMEQCRTEYRGALLWMKDVSQELDPDLYKQMEKFRKVQTQVRLAKKNFDKLKMDVCQKVDLLGASRCNLLSHMLATYQTTLLHFWEKTSHTMAAIHESFKGYQPYEFTTLKVWKLEGPLENLEKSKVLFISQAKSIAESIIIPGLRMLKRELCPQQSLFLSFFLFFYCIRIQYNENLLQSKSAN: not soluble

---

test: soluble on expression in E. coli; label from the status in PepcDB or PDB records
measured.metric: soluble on expression in E. coli

MSCINLPTVLPGSPSKTRGQIQVILGPMFSGKSTELMRRVRRFQIAQYKCLVIKYAKDTRYSSSFCTHDRNTMEALPACLLRDVAQEALGVAVIGIDEGQFFPDIVEFCEAMANAGKTVIVAALDGTFQRKPFGAILNLVPLAESVVKLTAVCMECFREAAYTKRLGTEKEVEVIGGADKYHSVCRLCYFKKASGQPAGPDNKENCPVPGKPGEAVAARKLFAPQQILQCSPAN: not soluble
MGSDKIHHHHHHMIQKGLEGVKICESSICYLDGINGRLYYRGIPVEELAEKSTFEETAYFLWYGKLPTKSELEEFKRKMADYRELPAEALGILYHLPKNLHYIDVLKIFLSIHGSMDGNDEDLREKAIRVASVFPTILAYYYRYSKGKELIRPRKDLSHVENFYYMMFGERNEKIRLLESAFILLMEQDINASTFAALVIASTLSDLYSCIVGALGALKGPLHGGASEKVPPMLEEIGSEDRVEEFVQKCLKEKRKIMGFGHRVYKTYDPRAVFLKRVLQEHFPDSKLFRIASKLEEYIVSNKIKNIYPNVDLYSSVLFEELGFPRNMFTALFATARVVGWTAHVIEYVSDNKLIRPTSEYVGPMDVEYIPIERRDENG: not soluble

---

test: soluble on expression in E. coli; label from the status in PepcDB or PDB records
measured.metric: soluble on expression in E. coli

Example entries begin here.
MANQKKDSLSTLFSEEVHGPFVTFLFNTHVAHQNVEKDSLVLKNFAKAAKTRFEKKFPEEKWSVFQEKIDALLADASFWRNGTASVSIILSPENTFVQRLDVPVDDQYYVDTIPYLLGLVKDKQFNYHYYLLALNRDSMKLYKVDHTTVTPVELPKDAPTDVVTALGDELTGGNLNFSTQGSSNGSKEGVAYHSINTKDKEVEIDWVNYYQAVDTFLKDQLDNPEKLPLYLYALPENQTLFKKIAKNPYYDCSISVAASPAQATIQDIRSASEKIAAELTEKETASYNKLLDRKFLDQFTDISPAAADGKISHLFIATSLFVTENNEMSSEEYDRRKLLNTIAYQVIQNGGQVFVLDQKAAPDEKSLAAILRY: not soluble
MSEPVKLRAHTQAHCKDCSLAPLCLPLSLNTDDMDSLDQIVKRGRPLKKGEFLFRQGDTFESVYAVRSGALKTFNISDNGEEQLTGFHLPSELVGLSGMDAEAYPVSAQALETTSVCEIPFERLDELSVQLPQLRRQLMRVMSREIRDDQQMMLLLSKKTADERIATFLINLSARFRARGFSANQFRLSMSRSEIGNHLGLAVETVSRVFTRFQQNQLVSAEGKEIHILAPIELCALAGGAMQS: soluble
MAHHHHHHMDQLVYYVMVQHNSIQPIIVRQPPTVVIHTQPNPPITLDLPPQNIILKNDEPQPIIVRQQNPNIIVQKSGNEFSENPNYALSLNQQMKEITSMTSPSAAIPHGGIAQVGIPHVTNEPLLGVTTPEMNELTDPAYIYSNQYITTQNKSQPMNNMYFTSVPLNNDGSYSPYNMTLYANKREDYTKSTPSKY: not soluble
MGSDKIHHHHHHMRVLVTGANGFVGSRLAGQLGRSDHFSLACAVRTTGTCRFGEEYSIGELGPKTDWSAALRGQDVVVHLAARAHVMDDEAPDPLVEYRRVNVDGTLNLARQAIDAGVRRFVFVSSIKVNGEQTDLGQPFTSDQITAPADAYGISKLEAERGLLALGKESGMEVVIIRPPLVYGPGVKGNFATLIKLVEKGFPLPLGAISNKRTLVSLDNLVDLIQVCIDHPAAANEVFLAGDNSDLSTSELLREIGKAVGKPARLIPVPQGFLMVAARLLGKTDVARRLFGSLQVDISKARHLLGWEPPVSVEEGLRRCFELESRS: not soluble
MGSDKIHHHHHHMKQTILDVDLLAFEQGTRFQQAAVVDGLMRSLGTGFVVTTSDLPSALLDEAYGMLNRFFALEATTKRQFNVPEAFGQTGYTDTLVETAAGEKLPDWKEMLNWAFPLPDNHPLRQRFPTLYPEQLLPEVAVPGITRVLQTFHQTIAELQCRVLRIIATGLGCHNDFFTDLVQDAPTLTRAIRYPPMSEAPAAGHMWAAAHGDINLITALPRATAPGLQVYIDGSWVDAIAPEGQVIVNSGLMLERISNGLIPTGWHRVLAPSQANLERLSVVQFCHPKPSTLLTPLSNCVNESHPQRFAGVMAADALEEVLYKIKLMA: not soluble

Look at this sequence and give its reported soluble on expression in E. coli. `MPKPSVGINGFGRIGRLVLRAAVEKDSVNVVAVNDPFISIDYMVYLFQYDSTHGRFKGTVAHEGDYLLVAKEGKSQHKIKVYNSRDPAEIQWGASGADYVVESTGVFTTIEKANAHLKGGAKKVIISAPSADAPMFVVGVNHEKYDHANDHIISNASCTTNCLAPLAKVINDNFGIIEGLMTTVHAVTATQKTVDGPSGKLWRDGRGAGQNIIPASTGAAKAVGKVIPELNGKLTGMAFRVPTPDVSVVDLTARLEKPASLDDIKKVIKAAADGPMKGILAYTEDQVVSTDFVSDTNSSIFDAGASISLNPHFVKLVSWYDNEFGYSNRVVDLISYIATKA`
not soluble

Look at this sequence and give its reported soluble on expression in E. coli. `MSLDLETDVVAGTAERKGSAEGKVEIEDRHVTKVSLPVQVVTGDENTLCYYTAIFDGHDGSSCAQYATVNLHKNLISLYRQIYSTVQRRKFLSVGLEALVKATAKSFFMTDHNFLDSARKSGVEQDAGSTACVVLLFGPDDDGQLKLLTAHAGDTRAVLCRDDRALRLTEDHRPNHKLEQRRVQQNGGEVMNIEGVWRVIFVDRKTNRLFGLATSRALGDRRMKVPKKLVTCQPTLHVYAINFETDLFLVLASDGIWDVLSDEEVVAIVSEHLDKPPQEAARFVIDEAVKRGSEDDKTCTVLFFKWRRDRFPSEGHHHHHH`
soluble

---

test: soluble on expression in E. coli; label from the status in PepcDB or PDB records
measured.metric: soluble on expression in E. coli

Example entries begin here.
MQVTSAEYLSNEESIKKGGNILMEKYNEKYNESIDGNKTLYKSYYESRRESIKNYNPDAKYINEIESIYMMLGEIYPNAPDFMSPHFEGDCSEGE: not soluble
GRDFRFSISPNFTWVKNAVEKLANGATEEINNNRIVGQPIGIIYGYETDGLFVDQAEIDAAPEQLVSKSGLKPGYVKYKDISGPDGVPDGKVDAQYDRTVLGSTTPKFYYGLNLSASYKGFDFSALLQGLGGHKRLIGSYMAYAFYNGGQIQRWQAESCWKEENPDKWAEYPRLETLNMNDTNLQTSDYWVRNASFLRVKNIQIGYTFPKAWTKKIGLENVRVYVSGQNLFSFNSFYKGWDPENEIGTGDSPSYYPVNSIYSFGFNFKF: not soluble
MGSDKIHHHHHHMLSVAIPKAKPLLKQEKVATTAQKNQKEVIHYTAIGDSLTEGIGDLTNSGGFVPIVADDLKEHYNLNGVQTDNFGKNGDRSDQILKRIKEKPEIQKGLASADVITLTVGGNDLMKVISSNIFDLKVSSFNRPQKAYQRRVRRLLEEIREYNEKAPIYVLGIYNPFYLNFSEITEMQEIVDNWNQATEEMVQEQKRAYFIPINDLLYKGRGDEVGVTGGDSETTGSSASKEDLNNLLYEEDRFHPNNLGYQIMAGAVRDEMVKTEKEWITKSEGSE: not soluble
MGSDKIHHHHHHMIMRILVVGDFLKTSGMTRYIFNVIGRIHASDFQVDALSISGKDECKGQVKKMGWGFYCVQAANNNLLRHLVQSFIFFKKHAKDYDVIHFNESALWNFLPIIFAHLFGAKRIILNSHNTYFATEGSKKLYVVLEIMHRIGKWLVAHVVAQNIAVSEEAARWMFTRKTINRHEYKIIVNGIELEKFAYNKEQRFKIRKSLKINEDTFLFGNVGIFNARKNQLRLLEIFNELVKRNLDVKLVLVGDGPIKEAIVAKISELRLADKVVMTGLINNTNEYYQAMDGVIMPSLNEGLSTVLLEAQTSGLQFILSEGLPLGNHIDLLVHEVPLSESNRVWADVVEHNMNREKREVFGSIMQKKGFDVELSAKELYQTYLEER: not soluble
MGSDKIHHHHHHMKHGILVAYKPKGPTSHDVVDEVRKKLKTRKVGHGGTLDPFACGVLIIGVNQGTRILEFYKDLKKVYWVKMRLGLITETFDITGEVVEERECNVTEEEIREAIFSFVGEYDQVPPAYSAKKYKGERLYKLAREGKIINLPPKRVKIFKIWDVNIEGRDVSFRVEVSPGTYIRSLCMDIGYKLGCGATAVELVRESVGPHTIEESLNVFEAAPEEIENRIIPLEKCLEWLPRVVVHQESTKMILNGSQIHLEMLKEWDGFKKGEVVRVFNEEGRLLALAEAERNSSFLETLRKHERNERVLTLRKVFNTR: not soluble

Look at this sequence and give its reported soluble on expression in E. coli. `TMEIPINRTYSCFLEGPEAPKTPACQAAKQAGGTQAMYDWNGINQNPSGDNHQAVVPDGTLCGGGKAEFKGFNLAREDWRTTNIVPDANGNYEFIYKATAPHATKYFKFYVTKNGWNPTQALKWSDLELFGTVNGNPQQDAGKRYHMTLKLPQGKTGKHIIFNVWKRSDSEEAFYSCSDVNFGG`
not soluble

Look at this sequence and give its reported soluble on expression in E. coli. `MDHGVVLLSDDQGLQWRQASSVPLSTPLTGVSFVDAKRGWAVGHWGAILITTDGGESWQVQRLATEEDRPLFAVHFFNARQGVAVGLWSLVLTTEDGGQTWSEQPLQAPPGAKRADLNLMGLFADSRGTLYATAEHGQVLHSEDQGKNWRYLDTGYEGTLWAGAVLADGRLLLGGQRGTLLQGSADGKGFHRVPTQSKGSVTCVAVAGSRVLAVGLDGLSVQSSDGGHSFQETQTADGLSLTAALFNAEGVPVLFSRRGVMPYQELEHHHHHH`
not soluble

Look at this sequence and give its reported soluble on expression in E. coli. `MSLHQFLLFKIKVPTGSMMPTVEIGDQLFVTKIYNPNNIKRGDIVVFNSDELKEPLLKRVIGLPGEHVEIKSDGSVYINGNKLEEDYVKYQGGKTDMSFDVPSGKFLMLGDNRNNSDDARYWSNPYIDGKDIEAKAQLTVYPFDRIGFVKEGHHHHHH`
soluble

Look at this sequence and give its reported soluble on expression in E. coli. `MSLNTWNELTVHVNREAEEAVSNLLIETGSQGVAISDSADYLGQEDRFGELYPEVEQSDMIAITAYYPDTLDIEAVKADLADRLANFEGFGLATGSVNLDSQELVEEDWADNWKKYYEPARITHDLTIVPSWTDYEAKAGEKIIKMDPGMAFGTGTHPTTKMSLFALEQVLRGGETVIDVGTGSGVLSIASSLLGAKDIYAYDLDDVAVRVAQENIDMNPGTENIHVAAGDLLKGVQQEVDVIVANILADILIHLTDDAYRLVKDEGYLIMSGIISEKWDMVRESAEKAGFFLETHMVQGEWNACVFKKTDDISGVIGGEGHHHHHH`
soluble
